Tested on: P. rettgeri ATCC14505
Test: MIC, P. rettgeri ATCC14505
Format: cell-based
Conditions: Providencia rettgeri, read-out: MIC
So basically: is MIC under 0.4 µg/mL? Then Criterion met. Not under? Then Criterion not met.

CO/N=C(\C(=O)N[C@@H]1C(=O)N2C(C(=O)O)=C(COC(C)=O)CS[C@H]12)c1csc(N)n1 [CTX, cephotaxim]; Criterion met
CN(C)CCn1nnnc1SCC1=C(C(=O)O)N2C(=O)[C@@H](NC(=O)Cc3csc(N)n3)[C@H]2SC1 [CTM, cephothiam]; Criterion not met
CO[C@@]1(NC(=O)C(C(=O)O)c2ccc(O)cc2)C(=O)N2C(C(=O)O)=C(CSc3nnnn3C)CO[C@@H]21 (stereo partly drawn) [LMOX, latamoxiceph]; Criterion met

q: Input Cc1nnc(SCC2=C(C(=O)O)N3C(=O)C(NC(=O)C(=NOCC(=O)NNC(=O)c4ccc(O)c(O)c4)c4csc(N)n4)C3SC2)s1 (stereo not drawn) [Example 59] ; condition: MIC strictly below 0.4 µg/mL. Does it hold?
a: Criterion not met

q: Input Cn1nnnc1SCC1=C(C(=O)O)N2C(=O)C(NC(=O)C(=NOCC(=O)NNC(=O)c3ccc(O)c(O)c3)c3csc(N)n3)C2SC1 (stereo not drawn) [Example 62] ; condition: MIC strictly below 0.4 µg/mL. Does it hold?
a: Criterion not met

---

Could you please report measured MIC for the items listed next?
Test system: E. coli ATCC25922
Assay: MIC, E. coli ATCC25922
Format: cell-based
Details: Escherichia coli, read-out: MIC
Give bare numbers, in µg/mL.

For every listed record, write down its MIC.
1. CO/N=C(\C(=O)N[C@@H]1C(=O)N2C(C(=O)O)=C(COC(C)=O)CS[C@H]12)c1csc(N)n1
2. Cn1nnnc1SCC1=C(C(=O)O)N2C(=O)C(NC(=O)C(=NOCC(=O)NNC(=O)c3ccc(O)c(O)c3)c3csc(N)n3)C2SC1 (stereo not drawn)
3. CO[C@@]1(NC(=O)C(C(=O)O)c2ccc(O)cc2)C(=O)N2C(C(=O)O)=C(CSc3nnnn3C)CO[C@@H]21 (stereo partly drawn)
4. Cc1nnc(SCC2=C(C(=O)O)N3C(=O)C(NC(=O)C(=NOCC(=O)NNC(=O)c4ccc(O)c(O)c4)c4csc(N)n4)C3SC2)s1 (stereo not drawn)
5. CN(C)CCn1nnnc1SCC1=C(C(=O)O)N2C(=O)[C@@H](NC(=O)Cc3csc(N)n3)[C@H]2SC1
6. Cn1nnnc1SCC1=C(C(=O)O)N2C(=O)C(NC(=O)C(=NOCC(=O)NN=Cc3ccc(O)c(O)c3)c3csc(N)n3)C2SC1 (stereo not drawn)

a:
[0.1, 0.2, 0.2, 0.1, 0.2, 0.2]

---

Could you please report measured MIC for the items listed next?
System: S. typhi 1099-77
Assay: MIC, S. typhi 1099-77
Type: cell-based
Details: Salmonella enterica, TYPHI

As a guide, the following entries are already answered.
CN(C)CCn1nnnc1SCC1=C(C(=O)O)N2C(=O)[C@@H](NC(=O)Cc3csc(N)n3)[C@H]2SC1; 0.1 µg/mL
CO[C@@]1(NC(=O)C(C(=O)O)c2ccc(O)cc2)C(=O)N2C(C(=O)O)=C(CSc3nnnn3C)CO[C@@H]21 (some centres unmarked); 0.05 µg/mL
Cn1nnnc1SCC1=C(C(=O)O)N2C(=O)C(NC(=O)C(=NOCC(=O)NN=Cc3ccc(O)c(O)c3)c3csc(N)n3)C2SC1 (centres unmarked); ≤ 0.006 µg/mL

For every listed record, write down its MIC.
1. Cn1nnnc1SCC1=C(C(=O)O)N2C(=O)C(NC(=O)C(=NOCC(=O)NNC(=O)c3ccc(O)c(O)c3)c3csc(N)n3)C2SC1 (centres unmarked)
2. Cc1nnc(SCC2=C(C(=O)O)N3C(=O)C(NC(=O)C(=NOCC(=O)NNC(=O)c4ccc(O)c(O)c4)c4csc(N)n4)C3SC2)s1 (centres unmarked)

a:
1: ≤ 0.006 µg/mL; 2: ≤ 0.006 µg/mL

---

Could you please report measured MIC for the items listed next?
System: P. maltophilia ATCC13637
One number for each entry, in µg/mL.

As a guide, the following entries are already answered.
CO/N=C(\C(=O)N[C@@H]1C(=O)N2C(C(=O)O)=C(COC(C)=O)CS[C@H]12)c1csc(N)n1 [CTX, cephotaxim]; 50
Cn1nnnc1SCC1=C(C(=O)O)N2C(=O)C(NC(=O)C(=NOCC(=O)NNC(=O)c3ccc(O)c(O)c3)c3csc(N)n3)C2SC1 (stereo not drawn) [Example 62]; 1.56
CO[C@@]1(NC(=O)C(C(=O)O)c2ccc(O)cc2)C(=O)N2C(C(=O)O)=C(CSc3nnnn3C)CO[C@@H]21 (stereo partly drawn) [LMOX, latamoxiceph]; 25

For every listed record, write down its MIC.
1. Cn1nnnc1SCC1=C(C(=O)O)N2C(=O)C(NC(=O)C(=NOCC(=O)NN=Cc3ccc(O)c(O)c3)c3csc(N)n3)C2SC1 (stereo not drawn) [Example 2]
2. Cc1nnc(SCC2=C(C(=O)O)N3C(=O)C(NC(=O)C(=NOCC(=O)NNC(=O)c4ccc(O)c(O)c4)c4csc(N)n4)C3SC2)s1 (stereo not drawn) [Example 59]

a:
[1.56, 0.78]

---

Could you please report measured MIC for the items listed next?
Test system: S. paratyphi C 33-76
Assay: MIC, S. paratyphi C 33-76
Assay type: cell-based
Conditions: Salmonella enterica, PARATYPHI
Numbers only, in µg/mL.

As a guide, the following entries are already answered.
Cn1nnnc1SCC1=C(C(=O)O)N2C(=O)C(NC(=O)C(=NOCC(=O)NN=Cc3ccc(O)c(O)c3)c3csc(N)n3)C2SC1 (stereo not drawn) [Example 2]; 0.012
Cc1nnc(SCC2=C(C(=O)O)N3C(=O)C(NC(=O)C(=NOCC(=O)NNC(=O)c4ccc(O)c(O)c4)c4csc(N)n4)C3SC2)s1 (stereo not drawn) [Example 59]; 0.012
CO[C@@]1(NC(=O)C(C(=O)O)c2ccc(O)cc2)C(=O)N2C(C(=O)O)=C(CSc3nnnn3C)CO[C@@H]21 (stereo partly drawn) [LMOX, latamoxiceph]; 0.025
Cn1nnnc1SCC1=C(C(=O)O)N2C(=O)C(NC(=O)C(=NOCC(=O)NNC(=O)c3ccc(O)c(O)c3)c3csc(N)n3)C2SC1 (stereo not drawn) [Example 62]; 0.012

q: Item CN(C)CCn1nnnc1SCC1=C(C(=O)O)N2C(=O)[C@@H](NC(=O)Cc3csc(N)n3)[C@H]2SC1 [CTM, cephothiam] has what recorded MIC?
a: 0.05

---

Tested on: S. aureus Smith
Test: MIC, S. aureus Smith
Assay type: cell-based
Conditions: Staphylococcus aureus, read-out: MIC
Description: The minimum inhibition concentrations (MIC) of the compounds obtained by the present invention were measured according to the standard method of Japanese Chemotherapy Association.
Quantity Kind: MIC (µg/mL)
Answers are plain numbers, in µg/mL.

As a guide, the following entries are already answered.
CO[C@@]1(NC(=O)C(C(=O)O)c2ccc(O)cc2)C(=O)N2C(C(=O)O)=C(CSc3nnnn3C)CO[C@@H]21 (stereo partly drawn); 6.25
Cn1nnnc1SCC1=C(C(=O)O)N2C(=O)C(NC(=O)C(=NOCC(=O)NN=Cc3ccc(O)c(O)c3)c3csc(N)n3)C2SC1 (stereo not drawn); 3.13
CN(C)CCn1nnnc1SCC1=C(C(=O)O)N2C(=O)[C@@H](NC(=O)Cc3csc(N)n3)[C@H]2SC1; 0.39
CO/N=C(\C(=O)N[C@@H]1C(=O)N2C(C(=O)O)=C(COC(C)=O)CS[C@H]12)c1csc(N)n1; 3.13
Cn1nnnc1SCC1=C(C(=O)O)N2C(=O)C(NC(=O)C(=NOCC(=O)NNC(=O)c3ccc(O)c(O)c3)c3csc(N)n3)C2SC1 (stereo not drawn); 3.13

Next, consider the following compound.
q: Item Cc1nnc(SCC2=C(C(=O)O)N3C(=O)C(NC(=O)C(=NOCC(=O)NNC(=O)c4ccc(O)c(O)c4)c4csc(N)n4)C3SC2)s1 (stereo not drawn) has what recorded MIC?
a: 0.78
